Record form. Attribute: composite z-score. Fill in for each entry.
# Tested on: Sam68 (KHDRBS1)
# protocol.summary: Sam68 small-molecule binders, primary screen, biochemical, small-molecule microarray, 635 nm fluorescence (AID 1125);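 note: score merges 667 nm channel intensity with signal to noise over triplicate slides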
# condition.notes: small-molecule microarray binding, higher = more signal
One number for each entry.

COCCOC(=O)N1C(=O)[C@@]2(c3cc(C#CCNC(N)=O)ccc31)[C@H](C(=O)NC[C@H](O)c1ccccc1)[C@H]1C(=O)O[C@H](c3ccccc3)[C@H](c3ccccc3)N1[C@@H]2c1ccc(OCCO)cc1 | 1.26
O=C1O[C@H](c2ccccc2)[C@H](c2ccccc2)N2[C@H]1[C@@H](C(=O)N1CCN(c3ncccn3)CC1)[C@]1(C(=O)Nc3ccccc31)[C@H]2c1ccc(O)cc1 | 1.29

Go through the items and report each one's composite z-score.
1. CCCCC(O)C1C=CC2C(=O)NC(=O)C2N1Nc1ccccn1 (stereo not given)
2. COCCOC(=O)N1C(=O)[C@@]2(c3cc(C#CC4=CCCCC4)ccc31)[C@H](C(=O)N1CCc3cc(OC)c(OC)cc3C1)[C@H]1C(=O)O[C@H](c3ccccc3)[C@H](c3ccccc3)N1[C@@H]2c1ccc(O)cc1
3. O=C(NCCO)C1=C[C@H](Oc2ccccc2I)[C@@H](O)[C@H](NCc2ccc(F)cc2)C1

Result:
1: -1.01; 2: 1.1; 3: -0.285

Go through the items and report each one's composite z-score.
1. CCCC[C@@H]1C[C@H]1[C@@H](NC(=O)Cc1ccccc1)c1ccc(Cl)cc1
2. CN1C(=O)C2C(C1=O)C1C=C(c3ccc(CO)cc3)C2C(c2cccs2)N1C (stereo not given)
3. NCCCC[C@@H]1NC(=O)[C@H]2C[C@@H](C(=O)O)[C@@H](c3cccc(OCCO)c3)N2C1=O

Result:
[1.31, 0.47, 1.29]

Go through the items and report each one's composite z-score.
1. C#CCN=C(N)N
2. COC(=O)[C@@]1(Cc2ccc(F)cc2)[C@H]2c3cc(C(=O)N(C)C)n(CCN4CCOCC4)c3C[C@H]2CN1C(=O)c1ccccc1
3. Cc1ccccc1C(O)C1C=CC2C(=O)N(c3ccccc3)C(=O)C2N1Nc1ccccc1F (stereo not given)

Result:
[0.754, -0.0247, 1.23]

====

Record form. Attribute: z-score. Fill in for each entry.
# protocol.summary: E. coli DRC41 culture turbidity changes, primary screen, E. coli filamentation inducer project, strain DRC41, OD650, 48 h (AID 1152);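 note: E. coli MC1000 strain DRC41 lacking acrAB efflux pump and sulA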
# condition.notes: E. coli DRC41 (acrAB sulA), higher = more signal, called active from +8 up or from −8 down
Give bare numbers.

Example results:
O=C1O[C@@H](c2ccccc2)[C@@H](c2ccccc2)N2[C@@H](c3ccc(O)cc3)[C@]3(C(=O)Nc4ccc(C#CC5=CCCCC5)cc43)[C@@H](C(=O)N3CCCCCCC3)[C@H]12 | 1.3
CC1(C)OC[C@@]23C=C(Br)[C@@H](C[C@H]12)[C@@]1(CO1)C3=O | -0.68
COc1ccc(CCNC(=O)[C@@]2(C)c3ccccc3C(=O)N(Cc3cc(C(F)(F)F)cc(C(F)(F)F)c3)[C@H]2c2ccc(CO)cc2)cc1 | 1.28
Cc1ccc(S[C@]2(C(=O)NCC(F)(F)F)CC(=O)N(C3CCCCC3)[C@@H]2c2ccc(CO)cc2)cc1 | 0.344

Go through the items and report each one's z-score.
1. Cc1c(-c2ccc(-c3ccc(Cl)c(Cl)c3)o2)nc(-c2ccccc2)c2c1CO[Si]2(C(C)C)C(C)C
2. N[C@@H](Cc1ccccc1)Cn1cc(C2(O)CCCCC2)nn1

Result:
-1.3
-1.05

Go through the items and report each one's z-score.
1. CCOC(=O)C1=C(C(=O)OCC)N(S(=O)(=O)CC[Si](C)(C)C)[C@H](c2ccccc2)CC1
2. COc1ccc(CC[C@H](O)c2cccc(OCC(=O)OC(C)(C)C)c2)cc1
3. COCC1=C([C@H](O)CCc2ccccc2)[C@H](CO)n2c(=O)n(-c3ccccc3)c(=O)n2C1
4. C=C(CC1([C@@H](NP(=O)(c2ccccc2)c2ccccc2)[C@H]2C[C@@H]2CCN(C(=O)OCC)S(=O)(=O)c2ccc(C)cc2)CC1)c1ccccc1
5. COCCCNC(=O)[C@@H]1c2ccccc2C(=O)N(C2CCCCC2)[C@H]1c1ccc(CO)cc1
6. COC(=O)[C@@]1(Cc2ccc(OC)cc2)[C@H]2c3cc(C(=O)N(C)C)n(Cc4ccsc4Br)c3C[C@H]2CN1C(=O)c1ccccc1
7. O=C1c2ccccc2[C@@]2(Cc3ccccc3N(Cc3ccccc3)C2=O)[C@H](c2ccc(CO)cc2)N1Cc1ccccc1

Result:
1: -0.941; 2: -0.636; 3: 3.47; 4: -1.42; 5: 0.416; 6: -0.218; 7: -0.757

Go through the items and report each one's z-score.
1. O=C1O[C@@H](c2ccccc2)[C@@H](c2ccccc2)N2[C@@H](c3ccc(OCCO)cc3)[C@]3(C(=O)Nc4ccc(C#CCCO)cc43)[C@@H](C(=O)Nc3nc4ccccc4s3)[C@H]12
2. C=CCC(OC(C)=O)[C@@H]1[C@@H](N(Cc2cccc3ccccc23)C(=O)c2cccc3ccccc23)c2cc(OCCCO)ccc2N1C(=O)Cc1ccc2ccccc2c1 (some centres not stated)
3. CN(C)CCCNC(=O)[C@@]1(Cc2ccccc2I)c2ccccc2C(=O)N(Cc2ccccc2)[C@H]1c1ccc(CO)cc1
4. COc1ccc([Si](C)(C)[C@H]2[C@H](CCO)O[C@@]3(C(=O)N(Cc4ccccc4)c4ccc(N(C=O)c5ccccc5)cc43)[C@@H]2C)cc1
5. C=CCC(OC(C)=O)[C@@H]1[C@@H](N(Cc2cc3ccccc3o2)C(=O)c2cccc3ccccc23)c2cc(OCCCO)ccc2N1C(=O)c1ccc2ccccc2c1 (some centres not stated)
6. [N-]=[N+]=NCc1ccccc1[C@H]1OC(c2ccc(OCCCO)cc2)=N[C@@]1(Cc1ccccc1)C(=O)N1CCOCC1

Result:
1. 2.3
2. -0.341
3. -0.206
4. 0.352
5. -0.546
6. -0.686

Go through the items and report each one's z-score.
1. CO[C@H]1O[C@H](CO)[C@@H](OC(=O)Nc2ccc(C(F)(F)F)cc2)[C@H](OC(=O)Nc2ccccc2-c2ccccc2)[C@H]1OC(=O)Nc1ccccc1-c1ccccc1
2. CCCC[C@@H](O)C1=C(COC)Cn2c(=O)n(-c3ccccc3)c(=O)n2[C@H]1CO
3. COCCOC(=O)N1C(=O)[C@@]2(c3cc(C#CC4(O)CCCCCC4)ccc31)[C@H](c1ccccc1OCCO)N1[C@H](c3ccccc3)[C@H](c3ccccc3)OC(=O)[C@H]1[C@@H]2C(=O)N1CCCCCCC1

Result:
1: -1.16; 2: 4.01; 3: 0.499

Go through the items and report each one's z-score.
1. CC(C)C[C@H]1NC(=O)[C@H](Cc2ccccc2)NC(=O)[C@@]23C(=O)N[C@@H](Cc4ccccc4)C2[C@H](C)[C@@]2(C)O[C@H]2C3/C=C/C/C=C\CNC1=O (some centres not stated)
2. CO[C@H]1O[C@H](CO)[C@@H](OC(=O)Nc2ccc(C(F)(F)F)cc2)[C@H](OC(=O)Nc2ccccc2-c2ccccc2)[C@@H]1OC(=O)Nc1ccccc1-c1ccccc1
3. [N-]=[N+]=NCc1ccccc1C[C@]1(C(=O)N2CCOCC2)N=C(c2ccc(OCCCO)cc2)O[C@H]1c1ccccc1CN=[N+]=[N-]
4. COCCOC(=O)N1C(=O)[C@@]2(c3cc(C#CC4(O)CCCCCC4)ccc31)[C@H](C(=O)N1CCc3cc(OC)c(OC)cc3C1)[C@H]1C(=O)O[C@H](c3ccccc3)[C@H](c3ccccc3)N1[C@@H]2c1ccc(O)cc1
5. Cc1ccc(S[C@]2(C(=O)NCCN3CCOCC3)CC(=O)N(C3CCCCC3)[C@@H]2c2ccc(CO)cc2I)cc1

Result:
-1
0.0065
0.341
1.27
0.465

====

# target.under.test: Concanavalin-A (Canavalia ensiformis) (UniProt P02866)
# Sequence (P02866 whole entry, looked up): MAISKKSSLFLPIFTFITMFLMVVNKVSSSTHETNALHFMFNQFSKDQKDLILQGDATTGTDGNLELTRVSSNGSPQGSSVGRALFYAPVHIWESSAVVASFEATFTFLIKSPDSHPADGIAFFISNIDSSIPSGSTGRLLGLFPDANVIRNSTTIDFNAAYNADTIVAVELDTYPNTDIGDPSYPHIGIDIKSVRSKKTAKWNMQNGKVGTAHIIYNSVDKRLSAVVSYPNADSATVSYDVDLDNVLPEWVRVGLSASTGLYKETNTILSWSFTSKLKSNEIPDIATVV
# protocol.summary: ConA small-molecule binders, primary screen, artefact control for SMM control protein annotation, biochemical, small-molecule microarray, Alexa647 label, 635 nm (AID 1127);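 note: z combines 667 nm emission intensity with signal-to-noise across three replicate slides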
# condition.notes: ConA-A647 binding fluorescence, higher = more signal
quantity.kind: composite z-score

O=C1O[C@H](c2ccccc2)[C@H](c2ccccc2)N2[C@H]1[C@@H](C(=O)NC[C@H](O)c1ccccc1)[C@]1(C(=O)Nc3ccc(C#CCCO)cc31)[C@H]2c1ccccc1OCCO | 1.02
CN1C=C(C(=O)OCCS(C)(=O)=O)C(C(=O)OCCS(C)(=O)=O)=CC(CCCO)=CC1c1ccc(CN2CCCC2)cc1 (centres undefined) | 0.907
CCCCC(=C=CC[C@@H](O)c1cccc(OCCO)c1)C[C@@H](O)COCc1ccccc1 | -0.302

// next entry
GET /value?item= C=C(/C(=C/C[C@H](OC(=O)c1ccncc1)c1ccccc1OCCO)c1cc(C(=O)OC)ccc1OC)C(C)C &field=composite z-score returns 0.737
